Biological target: CDK2 (Homo sapiens, UniProt P24941)
Construct: endogenous in cells; host or cells: MDA-MB-231
Test: CDK protein degradation activity (Western blotting), CDK2
Type: cell-based
Conditions: MDA-MB-231 cells, 10 μM, 16 hours, Western blot
Below, each entry is listed with its recorded Enzyme degradation CDK2 (% remaining) @ 10 μM.

Illustrative cases are given below, each with its answer.
- compound: "O=C1CC[C@H](N2C(=O)c3ccc(NCC(=O)N4CCC(CN5CCN(c6ccc(Nc7ncnc8c7ncn8C7CC(NC(=O)c8c(Cl)cccc8Cl)C7)cc6)CC5)CC4)cc3C2=O)C(=O)N1 (some centres unmarked)"
  target-desc: "CDK2 (Homo sapiens, UniProt P24941)"
  result: "30/30/30%"
- compound: "O=C1CCC(c2ccc(OCC(=O)N3CCC4(CC3)CC(N3CCN(c5ccc(Nc6ncnc7c6ncn7[C@H]6C[C@@H](NC(=O)Cc7ccccc7)C6)cc5)CC3)C4)cc2)C(=O)N1 (some centres unmarked)"
  target-desc: "CDK2 (Homo sapiens, UniProt P24941)"
  result: "30/30/30%"
- compound: "Cc1cccc(C(=O)NC2CC(n3cnc4c(NCc5ccc(N6CCN(CC7CCN(C(=O)CNc8cccc9c8C(=O)N([C@H]8CCC(=O)NC8=O)C9=O)CC7)CC6)cc5)ncnc43)C2)n1 (some centres unmarked)"
  target-desc: "CDK2 (Homo sapiens, UniProt P24941)"
  result: "10/10/10%"
- compound: "O=C1CC[C@H](N2C(=O)c3ccc(N4CCC(C(=O)N5CCC6(CC5)CC(N5CCN(c7ccc(Nc8ncnc9c8ncn9[C@H]8C[C@@H](NC(=O)c9c(Cl)cccc9Cl)C8)cc7)CC5)C6)CC4)cc3C2=O)C(=O)N1"
  target-desc: "CDK2 (Homo sapiens, UniProt P24941)"
  result: "30/30/30%"

Shifting focus to the compound that follows.
// returns reported Enzyme degradation CDK2 (% remaining) @ 10 μM for input O=C1CCC(N2C(=O)c3ccc(NCC(=O)N4CCC(CN5CCC(CNc6ncnc7c6ncn7[C@H]6C[C@@H](NC(=O)Cc7ccccc7)C6)CC5)CC4)cc3C2=O)C(=O)N1 (some centres unmarked)
100/100/100%
